PROCEDURE_SUMMARY: qHTS RealTime-Glo MT Cell Viability Assay in HepG2 cells - 40 hour (AID 1224870); note: nearly all actives have a fitted effect of over 50% in size
STATED_CONDITIONS: RealTime-Glo luminescence; series mostly up to 76.8 µM
Results filed as inconclusive are left out. The source made the active and inactive calls. Calls come from the whole dose curve; as a rule, active = well fitted cell-killing curve with a large enough effect in the repeat runs; inconclusive = weak or mixed curves, or effect the other way; inactive = flat fitted curve, though single readings scatter.
// allowed return values: true (1) for active, false (0) for inactive

{"columns": ["MOLECULE", "LABEL_CLASS"],
 "data": [
  ["CO[Si](CCCNCCNCCN)(OC)OC", "false (0)"]
]}

Please share the test call associated with CCc1cccc(C)c1 .
false (0)

Please share the test call associated with Cc1cccc(C)c1NC(=O)CN1CCN(CCCC(c2ccc(F)cc2)c2ccc(F)cc2)CC1 .
true (1)

Please share the test call associated with COc1ccc2sc(C(=O)Nc3nnn[nH]3)c(OC(C)C)c2c1 .
false (0)

Please share the test call associated with C[Si](C)O[Si](C)C .
false (0)
